Kindly supply the reported koff values for the records listed here.
Target: human alpha-synuclein (human, UniProt P37840 1-140)
Assay: SPR Biacore 3000, IgG captured by anti-human IgG on CM5 chip
Give bare numbers, in s⁻¹.

7C4 (antibody, V domains shown) VH: QVQLVQSGAEVKKPGASVKVSCKASGYTFTRYWMHWMRQAPGQGPEWIGRIDPNSGTTKYNVNFKTRATLTVDKSTSTAYMELSSLRSEDTAVYYCARLGHYGNLYAMDYWGQGTLVT VL: EIVLTQSPATLSLSPGERATLSCSASSSVSFMHWYQQKPGQAPRRWIYDTSKLASGVPARFSGSGSGTDYTLTISSLEPEDFAVYYCQQWSSNPPTFGQGTKLEIK: 0.000997

Name the recorded koff of the item ch2E6 (antibody, V domains shown, also called chimeric 2E6) VH: QVQLQQPGAELVKPGASVKLSCTASGYTFTSYWMHWMKQRPGRGLEWIGRIDPNSGTTKYNVNFKTKATLTVDKPSSTAYMHLSSLTSEDSAVYYCARLGHYGNLYAMDYWGQGTSVT VL: QIVLTQSPAIMSASPGEKVTMTCSASSSVSYMHWYQQKSGTSPKRWIYDTSKLASGVPTRFSGSGSGTSYSLTISSMDTEDAATYYCQQWSSNPPTFGAGTKLELK in your answer.
0.00139
